# Experimental Protocol: logP determination (PhysData, logP^1)
# Run Conditions: Table I-1; cells marked (A) are 1H-NMR, not logP
hey, just use Met if measured PhysData (logP^1) is less than 4, otherwise Not met

{"Molecule": "FC(F)(F)CNC(=S)N1CCOC1=NC1Cc2ccccc2C1", "Label Class": "Not met"}
{"Molecule": "CCC(CC)NC(=S)N1CCOC1=NC1Cc2ccccc2C1", "Label Class": "Not met"}
{"Molecule": "O=C(NC(=S)N1CCOC1=NC1Cc2ccccc2C1)c1ccccc1", "Label Class": "Met"}
{"Molecule": "S=C(NCC1CC1)N1CCOC1=NC1Cc2ccccc2C1", "Label Class": "Met"}
{"Molecule": "COC(=O)C(NC(=S)N1CCOC1=NC1Cc2ccccc2C1)C(C)C (stereo not drawn)", "Label Class": "Not met"}
{"Molecule": "COC(=O)CCNC(=S)N1CCOC1=NC1Cc2ccccc2C1", "Label Class": "Met"}
{"Molecule": "S=C(NCc1ccccc1)N1CCOC1=NC1Cc2ccccc2C1", "Label Class": "Not met"}
{"Molecule": "CC(NC(=S)N1CCOC1=NC1Cc2ccccc2C1)c1ccccc1 (stereo not drawn)", "Label Class": "Not met"}
{"Molecule": "Fc1ccc2c(c1)CC(N=C1NCCO1)C2 (stereo not drawn)", "Label Class": "Met"}

---

Examples of compounds with documented chromatographic logP follow.
# Experimental Protocol: physchem

{"Compound": "S=C(NCc1ccc2c(c1)OCO2)N1CCOC1=NC1Cc2ccccc2C1 [1-39]", "chromatographic logP": 4.1}
{"Compound": "FC(F)(F)C1CCC(NC(=S)N2CCOC2=NC2Cc3ccccc3C2)CC1 (centres unmarked) [1-29]", "chromatographic logP": 5.1}
{"Compound": "Cc1ccc(CNC(=S)N2CCOC2=NC2Cc3ccccc3C2)cc1 [1-46]", "chromatographic logP": 4.8}
{"Compound": "S=C(NCc1ccc(Cl)cc1Cl)N1CCOC1=NC1Cc2ccccc2C1 [1-49]", "chromatographic logP": 5.7}
{"Compound": "S=C(NC1CCCC1)N1CCOC1=NC1Cc2ccccc2C1 [1-32]", "chromatographic logP": 4.74}

---

# Experimental Protocol: logP determination (PhysData, logP^1)
# Run Conditions: Table I-2
# cutoff 4 applies to PhysData (logP^1); >= gives y, < gives n

{"Molecule": "FC(F)(F)CNC(=S)N1CCSC1=NC1Cc2ccccc2C1 [2-6]", "Label Class": "y"}
{"Molecule": "CCOC(=O)CNC(=S)N1CCSC1=NC1Cc2ccccc2C1 [2-8]", "Label Class": "y"}
{"Molecule": "c1ccc2c(c1)CC(NC1=NCCS1)C2 [2-1]", "Label Class": "n"}

---

Examples of molecules with documented chromatographic logP follow.
# Experimental Protocol: physchem

{"Molecule": "S=C(NCc1ccc(Cl)cc1)N1CCOC1=NC1Cc2ccccc2C1", "chromatographic logP": 4.9}
{"Molecule": "COCCNC(=S)N1CCOC1=NC1Cc2ccccc2C1", "chromatographic logP": 3.25}
{"Molecule": "FC(F)(F)C1CCCC(NC(=S)N2CCOC2=NC2Cc3ccccc3C2)C1 (stereo not shown)", "chromatographic logP": 4.7}
{"Molecule": "COC(CNC(=S)N1CCOC1=NC1Cc2ccccc2C1)OC", "chromatographic logP": 3.6}
{"Molecule": "S=C(Nc1ccccn1)N1CCOC1=NC1Cc2ccccc2C1", "chromatographic logP": 1.6}
{"Molecule": "S=C(NCc1ccccc1Cl)N1CCOC1=NC1Cc2ccccc2C1", "chromatographic logP": 4.9}
{"Molecule": "CCCC(C)NC(=S)N1CCOC1=NC1Cc2ccccc2C1 (stereo not shown)", "chromatographic logP": 5}
{"Molecule": "COc1ccc(CNC(=S)N2CCOC2=NC2Cc3ccccc3C2)cc1OC", "chromatographic logP": 3.7}
{"Molecule": "S=C(NCC1CCCO1)N1CCOC1=NC1Cc2ccccc2C1 (stereo not shown)", "chromatographic logP": 3.6}
{"Molecule": "S=C(NCc1cccc(Cl)c1)N1CCOC1=NC1Cc2ccccc2C1", "chromatographic logP": 4.9}

---

# System: Myzus persicae
# Experimental Protocol: Myzus persicae-test (Spray application)
# Format: in vivo
# Run Conditions: application rate of 500 g/ha; spray on Chinese cabbage leaf-disks, all instars

{"Molecule": "CCC(CC)NC(=S)N1CCOC1=NC1Cc2ccccc2C1", "Target Of Assay": "Myzus persicae", "activity (mortality in %)": "≥ 80%"}
{"Molecule": "S=C(NC1CCCC1)N1CCOC1=NC1Cc2ccccc2C1", "Target Of Assay": "Myzus persicae", "activity (mortality in %)": "≥ 80%"}
{"Molecule": "CC(C)NC(=S)N1CCOC1=NC1Cc2ccccc2C1", "Target Of Assay": "Myzus persicae", "activity (mortality in %)": "≥ 80%"}
{"Molecule": "CCCCNC(=S)N1CCOC1=NC1Cc2ccccc2C1", "Target Of Assay": "Myzus persicae", "activity (mortality in %)": "≥ 80%"}
{"Molecule": "CCNC(=S)N1CCOC1=NC1Cc2ccccc2C1", "Target Of Assay": "Myzus persicae", "activity (mortality in %)": "≥ 80%"}
{"Molecule": "CC(NC(=S)N1CCOC1=NC1Cc2ccccc2C1)c1cccc(Cl)c1 (centres unmarked)", "Target Of Assay": "Myzus persicae", "activity (mortality in %)": "≥ 80%"}
{"Molecule": "COCCNC(=S)N1CCOC1=NC1Cc2ccccc2C1", "Target Of Assay": "Myzus persicae", "activity (mortality in %)": "≥ 80%"}
{"Molecule": "CCCNC(=S)N1CCOC1=NC1Cc2ccccc2C1", "Target Of Assay": "Myzus persicae", "activity (mortality in %)": "≥ 80%"}
{"Molecule": "C=CCNC(=S)N1CCOC1=NC1Cc2ccccc2C1", "Target Of Assay": "Myzus persicae", "activity (mortality in %)": "≥ 80%"}
{"Molecule": "COC(CNC(=S)N1CCOC1=NC1Cc2ccccc2C1)OC", "Target Of Assay": "Myzus persicae", "activity (mortality in %)": "≥ 80%"}
{"Molecule": "CCOC(=O)C(C)NC(=S)N1CCOC1=NC1Cc2ccccc2C1 (centres unmarked)", "Target Of Assay": "Myzus persicae", "activity (mortality in %)": "≥ 80%"}
{"Molecule": "O=C(NCCCl)NC1Cc2ccccc2C1", "Target Of Assay": "Myzus persicae", "activity (mortality in %)": "≥ 80%"}
{"Molecule": "CNC(=S)N1CCOC1=NC1Cc2ccccc2C1", "Target Of Assay": "Myzus persicae", "activity (mortality in %)": "≥ 80%"}
{"Molecule": "S=C(NCC1CCCO1)N1CCOC1=NC1Cc2ccccc2C1 (centres unmarked)", "Target Of Assay": "Myzus persicae", "activity (mortality in %)": "≥ 80%"}
{"Molecule": "S=C(NCc1cccnc1)N1CCOC1=NC1Cc2ccccc2C1", "Target Of Assay": "Myzus persicae", "activity (mortality in %)": "≥ 80%"}
{"Molecule": "CC(NC(=S)N1CCOC1=NC1Cc2ccccc2C1)C(F)(F)F (centres unmarked)", "Target Of Assay": "Myzus persicae", "activity (mortality in %)": "≥ 80%"}
{"Molecule": "c1ccc2c(c1)CC(N=C1NCCO1)C2", "Target Of Assay": "Myzus persicae", "activity (mortality in %)": "≥ 80%"}
{"Molecule": "CCCC(C)NC(=S)N1CCOC1=NC1Cc2ccccc2C1 (centres unmarked)", "Target Of Assay": "Myzus persicae", "activity (mortality in %)": "≥ 80%"}
{"Molecule": "FC(F)(F)CNC(=S)N1CCOC1=NC1Cc2ccccc2C1", "Target Of Assay": "Myzus persicae", "activity (mortality in %)": "≥ 80%"}
{"Molecule": "S=C(NCc1ccc2c(c1)OCO2)N1CCOC1=NC1Cc2ccccc2C1", "Target Of Assay": "Myzus persicae", "activity (mortality in %)": "≥ 80%"}
{"Molecule": "S=C(NCc1cccc(Cl)c1)N1CCOC1=NC1Cc2ccccc2C1", "Target Of Assay": "Myzus persicae", "activity (mortality in %)": "≥ 80%"}
{"Molecule": "CC(C)CNC(=S)N1CCOC1=NC1Cc2ccccc2C1", "Target Of Assay": "Myzus persicae", "activity (mortality in %)": "≥ 80%"}
{"Molecule": "S=C(Nc1ccccn1)N1CCOC1=NC1Cc2ccccc2C1", "Target Of Assay": "Myzus persicae", "activity (mortality in %)": "≥ 80%"}

---

Examples of compounds with documented PhysData (logP^1) follow.
# Experimental Protocol: logP determination (PhysData, logP^1)
# Run Conditions: Table I-1; cells marked (A) are 1H-NMR, not logP
Readout Kind: PhysData (logP^1)

{"Compound": "COC(=O)CNC(=S)N1CCOC1=NC1Cc2ccccc2C1 [1-8]", "Value Reported": 3.20}
{"Compound": "CCNC(=S)N1CCOC1=NC1Cc2ccccc2C1 [1-5]", "Value Reported": 3.46}
{"Compound": "CCCNC(=S)N1CCOC1=NC1Cc2ccccc2C1 [1-18]", "Value Reported": 3.94}
{"Compound": "C=CCNC(=S)N1CCOC1=NC1Cc2ccccc2C1 [1-17]", "Value Reported": 3.75}
{"Compound": "CC(C)CNC(=S)N1CCOC1=NC1Cc2ccccc2C1 [1-21]", "Value Reported": 4.51}
{"Compound": "CCOC(=O)C(C)NC(=S)N1CCOC1=NC1Cc2ccccc2C1 (centres unmarked) [1-26]", "Value Reported": 4.2}
{"Compound": "S=C(NC1CC1)N1CCOC1=NC1Cc2ccccc2C1 [1-31]", "Value Reported": 3.5}
{"Compound": "CC(=O)NC(=S)N1CCOC1=NC1Cc2ccccc2C1 [1-10]", "Value Reported": 2.53}
{"Compound": "CNC(=S)N1CCOC1=NC1Cc2ccccc2C1 [1-2]", "Value Reported": 2.36}
{"Compound": "CCOC(=O)CC(C)NC(=S)N1CCOC1=NC1Cc2ccccc2C1 (centres unmarked) [1-23]", "Value Reported": 4.0}
{"Compound": "S=C(NCCc1ccccc1)N1CCOC1=NC1Cc2ccccc2C1 [1-40]", "Value Reported": 4.6}
